experiment: Solubility in water at 20 degC; format: physicochemical
readout_type: solubility (µg/mL)
Expressed in µg/mL, but write only the number.

GET /values?readout=solubility&item= CC(C)c1ccc(NC(=O)N(C)C)cc1
55
